Measurement target: Receptor-type tyrosine-protein kinase FLT3 (Homo sapiens, UniProt P36888)
Sequence (P36888 whole entry): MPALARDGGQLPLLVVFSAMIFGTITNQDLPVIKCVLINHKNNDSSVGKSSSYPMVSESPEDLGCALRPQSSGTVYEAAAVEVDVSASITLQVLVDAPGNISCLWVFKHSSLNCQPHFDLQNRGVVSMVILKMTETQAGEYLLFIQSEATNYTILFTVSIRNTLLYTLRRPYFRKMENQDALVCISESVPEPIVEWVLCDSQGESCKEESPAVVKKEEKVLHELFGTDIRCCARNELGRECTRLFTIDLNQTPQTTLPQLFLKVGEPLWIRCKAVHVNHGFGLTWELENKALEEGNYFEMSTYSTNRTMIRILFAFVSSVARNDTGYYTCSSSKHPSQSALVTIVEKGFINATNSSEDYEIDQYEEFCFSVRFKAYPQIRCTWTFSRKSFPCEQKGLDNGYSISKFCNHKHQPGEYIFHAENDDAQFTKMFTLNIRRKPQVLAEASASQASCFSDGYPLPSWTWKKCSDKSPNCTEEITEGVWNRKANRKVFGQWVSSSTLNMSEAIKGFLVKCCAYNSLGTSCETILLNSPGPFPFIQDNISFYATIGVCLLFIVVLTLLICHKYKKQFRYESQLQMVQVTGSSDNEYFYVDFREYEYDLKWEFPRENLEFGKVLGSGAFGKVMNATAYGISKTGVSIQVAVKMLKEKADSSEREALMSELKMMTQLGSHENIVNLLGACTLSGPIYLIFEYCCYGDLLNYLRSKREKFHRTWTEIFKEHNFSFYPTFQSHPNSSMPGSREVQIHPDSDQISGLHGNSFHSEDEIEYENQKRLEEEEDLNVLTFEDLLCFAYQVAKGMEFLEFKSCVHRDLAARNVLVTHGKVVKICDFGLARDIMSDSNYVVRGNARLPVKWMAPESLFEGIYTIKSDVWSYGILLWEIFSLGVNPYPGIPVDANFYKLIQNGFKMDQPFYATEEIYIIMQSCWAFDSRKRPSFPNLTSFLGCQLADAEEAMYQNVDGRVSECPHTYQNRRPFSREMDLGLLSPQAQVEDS
Protocol text: Inhibition of Flt3 (unknown origin) using KVEKIGEGTYGVVYK as substrate after 10 mins in presence of [gamma-33P]ATP by scintillation counting method
Condition label: read-out: IC50
What IC50 was measured for each of the following?
I only need the number, in µM, no unit after it.

Task: Form field: IC50 recorded for CSc1nc(Nc2ccccc2)c2ccn(CC(Cl)c3ccccc3)c2n1 (stereo not drawn) with Receptor-type tyrosine-protein kinase FLT3 (Homo sapiens, UniProt P36888) (enter value)
Result: 72

Task: Thanks! And CSc1nc(NCCc2ccc(Cl)cc2)c2ccn(Cc3ccc(F)cc3)c2n1 ?
Result: 76

Task: Thanks! And CSc1nc(N2CCCCC2)c2ccn(Cc3ccc(F)cc3)c2n1 ?
Result: 61

Task: Thanks! And CSc1nc(NCc2ccccc2)c2ccn(Cc3ccc(F)cc3)c2n1 ?
Result: 60

Task: Thanks! And CSc1nc(NCc2ccccc2)c2ccn(CC(Cl)c3ccccc3)c2n1 (stereo not drawn) ?
Result: 68

Task: Thanks! And CSc1nc(N2CCOCC2)c2ccn(Cc3ccc(F)cc3)c2n1 ?
Result: 61

Task: Thanks! And CSc1nc(N2CCCC2)c2ccn(Cc3ccc(F)cc3)c2n1 ?
Result: 64

Task: Thanks! And CSc1nc(Nc2cccc(Cl)c2)c2ccn(CC(Cl)c3ccccc3)c2n1 (stereo not drawn) ?
Result: 55

====

Measurement target: Tyrosine-protein kinase Fyn (Homo sapiens)
Sequence (P06241 whole entry): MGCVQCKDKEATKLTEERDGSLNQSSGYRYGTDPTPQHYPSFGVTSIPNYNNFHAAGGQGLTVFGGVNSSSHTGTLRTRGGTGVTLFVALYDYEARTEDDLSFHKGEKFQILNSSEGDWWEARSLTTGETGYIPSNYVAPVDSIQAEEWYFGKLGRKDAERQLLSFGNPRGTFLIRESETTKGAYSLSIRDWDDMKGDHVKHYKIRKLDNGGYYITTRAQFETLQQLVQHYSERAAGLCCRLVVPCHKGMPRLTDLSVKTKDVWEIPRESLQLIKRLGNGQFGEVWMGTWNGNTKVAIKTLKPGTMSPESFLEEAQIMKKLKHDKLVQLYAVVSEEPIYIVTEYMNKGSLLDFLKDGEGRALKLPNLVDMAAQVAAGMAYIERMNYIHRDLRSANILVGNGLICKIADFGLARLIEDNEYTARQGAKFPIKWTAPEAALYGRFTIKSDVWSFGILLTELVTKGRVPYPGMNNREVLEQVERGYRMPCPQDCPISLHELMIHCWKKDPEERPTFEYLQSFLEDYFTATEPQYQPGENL
Protocol text: Inhibition of human recombinant full length N-terminal His6-tagged Fyn expressed in baculovirus infected Sf21 cells using KVEKIGEGTYGVVYK as substrate after 10 mins in presence of [gamma-33P]ATP by scintillation counting method
Condition label: read-out: IC50
What pIC50 was measured for each of the following?
# pIC50 is unitless: minus log10 of the molar concentration; print number only

Task: Dear colleague, I am looking for the recorded pIC50 of the following compound: CSc1nc(N2CCCC2)c2ccn(Cc3ccc(F)cc3)c2n1
Result: 4.12

Task: Thanks! And CSc1nc(Nc2cccc(Cl)c2)c2ccn(CC(Cl)c3ccccc3)c2n1 (stereo not drawn) ?
Result: 4.24

Task: Thanks! And CSc1nc(N2CCCCC2)c2ccn(Cc3ccc(F)cc3)c2n1 ?
Result: 4.24

Task: Thanks! And CSc1nc(NCCc2ccc(Cl)cc2)c2ccn(Cc3ccc(F)cc3)c2n1 ?
Result: 4.15

Task: Thanks! And CSc1nc(NCCc2ccccc2)c2ccn(Cc3ccc(F)cc3)c2n1 ?
Result: 4.51

Task: Thanks! And CSc1nc(NCc2ccccc2)c2ccn(CC(Cl)c3ccccc3)c2n1 (stereo not drawn) ?
Result: 4.05

Task: Thanks! And CSc1nc(Nc2ccccc2)c2ccn(CC(Cl)c3ccccc3)c2n1 (stereo not drawn) ?
Result: 4.21

Task: Thanks! And CSc1nc(NCc2ccccc2)c2ccn(Cc3ccc(F)cc3)c2n1 ?
Result: 4.36

====

Measurement target: Proto-oncogene tyrosine-protein kinase Src (Homo sapiens)
Sequence (P12931 2-536 limits assumed): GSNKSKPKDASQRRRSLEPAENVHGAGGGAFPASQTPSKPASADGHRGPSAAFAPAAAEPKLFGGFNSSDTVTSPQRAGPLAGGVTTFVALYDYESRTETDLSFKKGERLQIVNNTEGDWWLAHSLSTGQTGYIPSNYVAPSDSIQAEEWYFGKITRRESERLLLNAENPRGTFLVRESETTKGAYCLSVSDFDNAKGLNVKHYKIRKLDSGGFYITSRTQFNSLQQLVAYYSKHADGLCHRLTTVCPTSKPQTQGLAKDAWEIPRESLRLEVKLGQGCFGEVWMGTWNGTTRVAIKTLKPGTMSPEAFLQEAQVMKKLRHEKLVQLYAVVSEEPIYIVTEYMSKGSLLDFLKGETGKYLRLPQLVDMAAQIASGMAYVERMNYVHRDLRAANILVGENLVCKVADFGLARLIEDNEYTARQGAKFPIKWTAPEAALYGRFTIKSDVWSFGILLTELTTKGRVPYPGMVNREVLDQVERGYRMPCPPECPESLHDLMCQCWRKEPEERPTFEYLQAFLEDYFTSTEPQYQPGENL
Protocol text: Inhibition of human recombinant full length N-terminal His6-tagged Src expressed in Sf21 cells using KVEKIGEGTYGVVYK as substrate after 10 mins in presence of [gamma-33P]ATP by scintillation counting method
Measured parameter: pKi
# pKi is unitless: minus log10 of the molar concentration; print number only

Task: Form field: pKi recorded for CSc1nc(N2CCCC2)c2ccn(Cc3ccc(F)cc3)c2n1 with Proto-oncogene tyrosine-protein kinase Src (Homo sapiens) (enter value)
Result: 5.70

Task: Thanks! And CSc1nc(NCc2ccccc2)c2ccn(Cc3ccc(F)cc3)c2n1 ?
Result: 6.30

Task: Thanks! And CSc1nc(Nc2ccccc2)c2ccn(CC(Cl)c3ccccc3)c2n1 (stereo not given) ?
Result: 5.82

Task: Thanks! And CCCCNc1nc(SC)nc2c1ccn2Cc1ccc(F)cc1 ?
Result: 5.52

Task: Thanks! And CSc1nc(NCCc2ccccc2)c2ccn(Cc3ccc(F)cc3)c2n1 ?
Result: 6.10

Task: Thanks! And CSc1nc(NCCc2ccc(Cl)cc2)c2ccn(Cc3ccc(F)cc3)c2n1 ?
Result: 5.30

Task: Thanks! And CSc1nc(Nc2cccc(Cl)c2)c2ccn(CC(Cl)c3ccccc3)c2n1 (stereo not given) ?
Result: 6.15

Task: Thanks! And CSc1nc(N2CCOCC2)c2ccn(Cc3ccc(F)cc3)c2n1 ?
Result: 5.33

Task: Thanks! And CSc1nc(N2CCCCC2)c2ccn(Cc3ccc(F)cc3)c2n1 ?
Result: 5.60

Task: Thanks! And CSc1nc(NCc2ccccc2)c2ccn(CC(Cl)c3ccccc3)c2n1 (stereo not given) ?
Result: 5.22

====

Measurement target: Tyrosine-protein kinase ABL1 (Homo sapiens, UniProt P00519)
Sequence (P00519 whole entry): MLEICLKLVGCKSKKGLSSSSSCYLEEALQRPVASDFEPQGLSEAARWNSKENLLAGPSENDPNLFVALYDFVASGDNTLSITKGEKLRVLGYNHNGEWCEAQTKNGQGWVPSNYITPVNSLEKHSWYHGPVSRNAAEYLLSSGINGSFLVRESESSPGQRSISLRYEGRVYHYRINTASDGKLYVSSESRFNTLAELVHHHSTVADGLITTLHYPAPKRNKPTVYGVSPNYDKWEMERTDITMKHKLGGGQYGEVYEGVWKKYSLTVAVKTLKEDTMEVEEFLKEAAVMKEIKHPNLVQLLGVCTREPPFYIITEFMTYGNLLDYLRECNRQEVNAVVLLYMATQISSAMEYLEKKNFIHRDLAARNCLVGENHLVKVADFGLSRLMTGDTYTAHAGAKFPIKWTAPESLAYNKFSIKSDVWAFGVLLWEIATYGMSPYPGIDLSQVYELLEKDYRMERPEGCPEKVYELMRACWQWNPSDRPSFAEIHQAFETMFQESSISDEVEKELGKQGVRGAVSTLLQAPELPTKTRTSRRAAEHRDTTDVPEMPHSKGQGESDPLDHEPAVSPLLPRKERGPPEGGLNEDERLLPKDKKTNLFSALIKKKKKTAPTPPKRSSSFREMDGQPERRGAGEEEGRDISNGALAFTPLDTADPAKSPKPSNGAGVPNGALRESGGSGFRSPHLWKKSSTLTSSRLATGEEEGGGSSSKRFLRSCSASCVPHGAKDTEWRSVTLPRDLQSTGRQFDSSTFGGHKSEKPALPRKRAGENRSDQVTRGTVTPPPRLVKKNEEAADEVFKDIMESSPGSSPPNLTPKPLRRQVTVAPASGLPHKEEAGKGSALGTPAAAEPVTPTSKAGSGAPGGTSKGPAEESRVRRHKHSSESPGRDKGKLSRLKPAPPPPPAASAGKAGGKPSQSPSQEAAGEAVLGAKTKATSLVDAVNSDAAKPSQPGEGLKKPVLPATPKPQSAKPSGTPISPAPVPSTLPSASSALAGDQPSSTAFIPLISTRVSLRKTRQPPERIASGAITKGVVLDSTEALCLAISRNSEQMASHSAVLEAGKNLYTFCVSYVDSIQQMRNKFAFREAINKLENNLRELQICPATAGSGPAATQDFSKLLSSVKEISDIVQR
Protocol text: Inhibition of Abl (unknown origin)
Condition label: read-out: IC50
Measured parameter: IC50 (µM)
I only need the number, in µM, no unit after it.

Task: Form field: IC50 recorded for CSc1nc(NCc2ccccc2)c2ccn(Cc3ccc(F)cc3)c2n1 with Tyrosine-protein kinase ABL1 (Homo sapiens, UniProt P00519) (enter value)
Result: 70
